TARGET_UNDER_TEST: T1, CD137-hisFc fusion protein (Sino Biological Cat 10041-H03H) (human, UniProt Q07011 24-186)
T1 construct: Bought; also called recombinant human CD137 (fused with human Fc and His tag); not shown: His tag and human Fc
ASSAY_DETAILS: BLI Octet, Fab
A collection of binders and their measured koff

(Q) Which measured koff value corresponds to Fab 7088 (Fab, V domains shown, Fab from E. coli; also called VH46/VL46) VH: EVQLVESGGGLVQPGGSLRLSCAASGFSLSTSGVGVGWIRQAPGKGLEWVSYISGDGGSTYYADSVKGRFTISRDNSKNTLYLQLNSLRAEDTAVYYCAREGSTAVVGDWFAYWGQGTLVTVSS VL: DIQLTQSPSSLSASVGDRVTITCRASQGISSYLAWYQQKPGKAPKLLIYDASNLETGVPSRFSGSGSGTDFTLTISSLQPEDFATYYCQQYYTTPLTFGQGTKVEIKR ?
(A) 0.0111 s⁻¹

(Q) // koff lookup, key: Fab 5351 (Fab, V domains shown, Fab from E. coli; also called VH25/VL25) VH: EVQLVESGGGLVQPGGSLRLSCAASGYSITSGHYWAWIRQAPGKGLEWVSSISGYGSTTYYADSVKGRFTISRDNSKNTLYLQLNSLRAEDTAVYYCARGGSDAVLGDWFAYWGQGTLVTVSS VL: DIQLTQSPSSLSASVGDRVTITCRASQGIGSFLAWYQQKPGKAPKLLIYDASNLETGVPSRFSGSGSGTDFTLTISSLQPEDFATYYCQQGYYLWTFGQGTKVEIKR
(A) 0.0034 s⁻¹

(Q) # query: koff of entry Fab 7100 (Fab, V domains shown, Fab from E. coli; also called VH50/VL50) VH: EVQLVESGGGLVQPGGSLRLSCAASGFSLSTSGVGVGWIRQAPGKGLEWVSYISGDGGSTYYADSVKGRFTISRDNSKNTLYLQLNSLRAEDTAVYYCAREGSDTVLGDWFAYWGQGTLVTVSS VL: DIQLTQSPSSLSASVGDRVTITCRASQGISSYLAWYQQKPGKAPKLLIYDASNLETGVPSRFSGSGSGTDFTLTISSLQPEDFATYYCQQYYSTPLTFGQGTKVEIKR
(A) 0.0162 s⁻¹
